The following binders are shown together with reported pKd values.
- Assayed System: T1, monovalent hVISTA-ECD (human VISTA extracellular domain with His tail) (human, UniProt Q9H7M9 33-193)
- T1 construct: analyte flowed over captured antibody; also called huVISTA-His
- T1 sequence (Q9H7M9 other isoform, or with tags, fused parts or gaps limits assumed): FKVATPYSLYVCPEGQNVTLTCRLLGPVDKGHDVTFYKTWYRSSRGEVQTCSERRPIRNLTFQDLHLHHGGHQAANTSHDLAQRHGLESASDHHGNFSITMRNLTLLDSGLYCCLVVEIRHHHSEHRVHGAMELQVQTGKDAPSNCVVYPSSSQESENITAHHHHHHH
- Method Summary: SPR, pH 7.4
// pKd here means minus log10 of the molar concentration (mol/L)

Consider the reported pKd for these binders:
INSERT INTO measurements (binder, assay_result) VALUES
  ('P1-063153 (41F11_HC_mutant: D31E/Y50W/S55E/Y100E) (antibody, V domains shown, Kabat positions; also called P1-063153-5) VH: QVQLVESGGGLVKPGGSLRLSCAASGFTFSEYYMSWIRQAPGKGLEWVSWISNSGEPIYYADSVKGRFTISRDNAKNSLYLQMNSLRAEDTAVYYCARDLPGWEFDLWGRGTLVTVSS VL: EIVLTQSPATLSLSPGERATLSCRASQSVSSYLAWYQQKPGQAPRLLIYDASNRATGIPARFSASGSGTDFTLTISSLEPEDFAVYYCQQRNNWPRTFGQGTKVEIK', 9.82),
  ('P1-064490 (41F11_VH_F27EY50EL96E) (antibody, V domains shown, Kabat positions; also called P1-064490-1; P1-064490-2) VH: QVQLVESGGGLVKPGGSLRLSCAASGETFSDYYMSWIRQAPGKGLEWVSEISNSGSPIYYADSVKGRFTISRDNAKNSLYLQMNSLRAEDTAVYYCARDEPGWYFDLWGRGTLVTVSS VL: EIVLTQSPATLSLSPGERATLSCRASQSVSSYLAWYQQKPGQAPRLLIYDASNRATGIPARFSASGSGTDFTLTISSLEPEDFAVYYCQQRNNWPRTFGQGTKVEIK', 7.12);

What does the record list as pKd for P1-064510 (41F11_Vk_A25E/V29D/A64G/R91T) (antibody, V domains shown, also called P1-064510-1) VH: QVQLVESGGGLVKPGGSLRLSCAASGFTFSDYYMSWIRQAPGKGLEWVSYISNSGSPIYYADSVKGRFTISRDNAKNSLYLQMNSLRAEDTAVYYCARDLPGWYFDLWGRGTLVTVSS VL: EIVLTQSPATLSLSPGERATLSCRESQSDSSYLAWYQQKPGQAPRLLIYDASNRATGIPARFSGSGSGTDFTLTISSLEPEDFAVYYCQQTNNWPRTFGQGTKVEIK ? 8.39
